Reference source: PubChem BioAssay (NCATS)

Test: Cell Viability - HUV-EC-C (AID 542);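 further: cells exposed to compound for 40 hours; nearly all actives have a fitted effect of over 35% in size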
Conditions: HUV-EC-C endothelial cell viability, qHTS; series mostly up to 92.2 µM
Inconclusive results are not listed. The source made the active and inactive calls. The call rests on the fitted dose curve; in most records, active means well fitted cell-killing curve with a large enough effect; inconclusive means small, poorly fitted or top-dose-only effect, or effect the other way; inactive means flat fitted curve, though single readings scatter.
Choose one outcome from this list and give only that: active, inactive

| compound | cat |
| --- | --- |
| Nc1ccc(-c2ccc(N)c(O)c2)cc1O | inactive |
| Cc1ccc(C(=O)O)cc1[N+](=O)[O-] | inactive |
| CCCCCCCC/C=C\CCCCCCCC(=O)N(CCO)CCO | active |
| CC1=C(/C=C/C(C)=C/C=C/C(C)=C/C=O)C(C)(C)CCC1 | active |
| c1ccc(CSCc2ccccc2)cc1 | inactive |
| COc1cc(-c2ccc(N=C=O)c(OC)c2)ccc1N=C=O | inactive |
| CC(=O)OC1CC(C)OC(C)O1 (stereo not given) | inactive |
| Oc1ccc2c(c1)OCO2 | inactive |

Exercise: # lookup: test call for OC1CCCCC1
Solution: inactive

---

Biological target: Cytochrome P450 3A4 (Homo sapiens)
Assay: qHTS Assay for Inhibitors and Substrates of Cytochrome P450 3A4 (AID 884); further: nearly all actives have a fitted effect of over 50% in size; further: potency means the concentration at half of the fitted maximal effect
Details: recombinant CYP3A4, Luciferin-PPXE luminescence; series mostly up to 57.1 µM
Records with an inconclusive call do not appear. Activity calls are given as the source filed them. The call rests on the fitted dose curve; in most records, active means well fitted inhibition curve with a large enough effect; inconclusive means small, poorly fitted or top-dose-only effect; inactive means no such curve, though single readings can be large or run the other way.
recordedEndpoint: Potency

Worked set:
| molecule | recordedEndpoint | assayValue |
| --- | --- | --- |
| O=C(c1cc(C(F)(F)F)cc(C(F)(F)F)c1)N1CCC[C@@]2(CCN(Cc3ccccc3)C2)C1 | Potency | 5.01 µM (active) |
| CN(C)Cc1cc(C(F)(F)F)ccc1C(O)(c1ccccc1)c1ccccc1 | Potency | 0.794 µM (active) |
| c1ccc(C[C@@H](Nc2cccnc2)c2ccccc2)cc1 | Potency | 3.16 µM (active) |
| Cc1cc(O)c(C(C)C)cc1N=Cc1ccccc1O | Potency | 3.16 µM (active) |
| COCCn1c(=O)c(-c2cccs2)nc2cnc(Oc3ccc(OC)cc3)nc21 | Potency | 0.794 µM (active) |

The molecule O=[N+]([O-])c1ccc(CSc2ncnc3c2ncn3[C@@H]2O[C@@H](CO)[C@@H](O)[C@H]2O)cc1 showed Potency equal to inactive

Recorded result, c1ccc2c(c1)ccc1ccccc12 , Potency: inactive

Per the record, O=[N+]([O-])c1cc(Cl)c(Cl)c(Cl)c1Cl has Potency of inactive

Query COc1cc(-c2ccc(N=C=O)c(OC)c2)ccc1N=C=O yields Potency of 12.6 µM (active)

The recorded Potency for entry Cn1ncc2c(NCCc3ccccc3)nc(Cl)nc21 equals 2 µM (active)

The value of Potency measured for the molecule Nc1ccccc1O turned out to be inactive

Kindly note the recorded Potency for CC(=O)OC(C(=O)c1ccccc1)c1ccccc1 (stereo not given) , which is inactive

Kindly note the recorded Potency for CN[C@@H](c1ccncc1)[C@@H](NC)c1ccncc1 , which is 5.01 µM (active)

# molecule S=C(S)NCCCn1ccnc1 ; its Potency = 1.58 µM (active)

response.value for C=C(C#N)C(=O)OCC (field: Potency) = inactive

Entry under test: O=C(c1ccccc1)[C@H](Nc1ccc2ccccc2c1)c1ccccc1 . Its Potency was 3.16 µM (active)

Entry Cc1ccc(S(=O)(=O)Nc2cc(=O)[nH]c3c2CCC3)cc1 — recorded Potency = 3.16 µM (active)

Recorded Potency (molecule Cc1ccc(C2=Nc3ccccc3S[C@@H](c3cccc([N+](=O)[O-])c3)C2)cc1 ): 3.98 µM (active)

For record CCC(Cl)CC(Cl)C(Cl)C(Cl)C(Cl)C(C)Cl (stereo not given) the listed Potency is inactive

The reported Potency of the molecule Cc1ccccc1OCC1CO1 (stereo not given) was inactive

Noted for Cc1ccc(C(=N)c2ccccc2Cc2cccc3ccccc23)c2ccccc12 : its Potency reads 3.98 µM (active)

// CC1CCN(CC(=O)N2c3ccccc3Sc3cc4ccccc4cc32)CC1 : Potency value = 3.98 µM (active)

Given item Nc1cnn([C@@H]2O[C@H](CO)[C@@H](O)[C@H]2O)c(=O)n1 , the value recorded as its Potency is inactive

Form field Potency, entry C/C(Cl)=C/CCl : inactive

# Potency of CCCC(=O)OC(=O)CCC = inactive
